Target chain: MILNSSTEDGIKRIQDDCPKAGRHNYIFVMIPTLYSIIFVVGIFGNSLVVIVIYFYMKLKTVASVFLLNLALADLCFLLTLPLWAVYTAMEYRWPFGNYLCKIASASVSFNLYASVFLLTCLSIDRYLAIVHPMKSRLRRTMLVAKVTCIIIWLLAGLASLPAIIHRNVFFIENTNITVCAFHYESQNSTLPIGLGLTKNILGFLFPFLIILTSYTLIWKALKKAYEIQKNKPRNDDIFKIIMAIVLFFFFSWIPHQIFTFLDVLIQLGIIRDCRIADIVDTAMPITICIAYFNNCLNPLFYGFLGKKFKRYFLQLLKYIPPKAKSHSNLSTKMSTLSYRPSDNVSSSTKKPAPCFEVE
pIC50: −log10 of the molar value.
experimental-endpoint: pIC50

smi=CCCCc1cnc(CO)n1Cc1ccc(-c2ccccc2-c2nnn[nH]2)cc1 experimental_endpoint=pIC50 readout_number=7.27
